target: Dual specificity protein phosphatase 6 (Homo sapiens) (UniProt Q16828); assay: DUSP6 inhibitors restoring Erk phosphorylation by chemical complementation, primary imaging in DUSP6-transfected HeLa (AID 609); conditions: HeLa MKP-3 transfected, phospho-Erk imaging KS statistic; at 10 µM; stronger effect = higher value; cells stimulated with TPA for 15 min;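 for inhibition: phospho-Erk level distribution per well compared with pooled transfected vehicle control wells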
Sequence (Q16828 whole entry, looked up): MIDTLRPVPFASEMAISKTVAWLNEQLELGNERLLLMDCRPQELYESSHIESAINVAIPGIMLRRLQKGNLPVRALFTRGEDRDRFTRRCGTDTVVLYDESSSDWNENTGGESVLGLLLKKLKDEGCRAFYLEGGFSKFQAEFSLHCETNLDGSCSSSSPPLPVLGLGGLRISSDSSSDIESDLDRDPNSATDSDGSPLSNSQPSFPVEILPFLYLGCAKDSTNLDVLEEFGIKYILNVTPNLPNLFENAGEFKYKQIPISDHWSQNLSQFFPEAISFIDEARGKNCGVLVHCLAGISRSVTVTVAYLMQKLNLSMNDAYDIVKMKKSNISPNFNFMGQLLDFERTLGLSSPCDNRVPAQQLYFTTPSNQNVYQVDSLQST
Activity calls are given as the source filed them.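 Rule for the calls: active = compounds giving at least 50% inhibition in the cell-based MKP-3 phosphatase rescue imaging test; inactive = the rest.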
measured.attribute: inhibition

[
  {
    "compound": "COc1cc([C@@H]2[C@H]3CNCC=C3C(C#N)=C(N)C2(C#N)C#N)ccc1OC(C)C",
    "inhibition": "2.46% (inactive)"
  },
  {
    "compound": "Nc1nonc1OCCc1ccccc1",
    "inhibition": "-6.06% (inactive)"
  },
  {
    "compound": "CC1(C)Cc2c(C#N)c(NCCN3CCOCC3)nc(-c3ccco3)c2CO1",
    "inhibition": "26.5% (inactive)"
  }
]

// below: inhibition requested for another compound
[Q] Sample COC(=O)c1ccc(C2C(C(=O)c3cc4ccccc4o3)=C(O)C(=O)N2CCCN(C)C)cc1 (stereo not given) — what was its inhibition?
[A] -6.48% (inactive)

====

Measured z-score, listed per entry.
assay: DUSP6 inhibitors restoring Erk phosphorylation by chemical complementation, primary imaging in DUSP6-transfected HeLa (AID 609); details: HeLa MKP-3 transfected, phospho-Erk imaging KS statistic; measured here: nuclear c-Myc green intensity z-score; at 10 µM; cells stimulated with TPA for 15 min
// no unit string in output, number only

Completed entries (count: 5):
[
  {
    "molecule": "CNc1nc(C)c(C#N)cc1C(C)=O",
    "z-score": -0.478
  },
  {
    "molecule": "N#CCCN(CCC#N)c1nnc(-c2ccccc2)s1",
    "z-score": 1.59
  },
  {
    "molecule": "CCOC(=O)COc1ccc(Oc2nc(C)cc(OC)n2)nn1",
    "z-score": -0.0792
  },
  {
    "molecule": "CC(O)Cn1cnc2c1c(=O)n(C)c(=O)n2C (centres undefined)",
    "z-score": -0.569
  },
  {
    "molecule": "Cc1nnc2n(Cc3ccccc3)c(=O)c3c4c(sc3n12)COC(C(C)C)C4 (centres undefined)",
    "z-score": -0.394
  }
]

[Q] Sample O=C(O)C1CSC(CCc2ccccc2)N1 (centres undefined) — what was its z-score?
[A] 0.112

[Q] Sample Cc1cc(C)nc(NC(=O)c2ccc(OC(C)C)cc2)n1 — what was its z-score?
[A] 1.41

[Q] Sample CC12CCC(C(=O)N(CCC#N)CCC#N)(CC1=O)C2(C)C (centres undefined) — what was its z-score?
[A] 1.07

[Q] Sample Cc1c(CCC#N)c(N2CCCCC2)n2c(nc3ccccc32)c1C#N — what was its z-score?
[A] -1.2

[Q] Sample C=CCn1c(=S)[nH]c2ccccc2c1=O — what was its z-score?
[A] 0.859

[Q] Sample CCCCc1ccc(NC(=O)CSC2=C(C#N)C(c3ccco3)C3=C(CCCC3=O)N2)cc1 (centres undefined) — what was its z-score?
[A] 1.7

[Q] Sample Cc1cc2c(c(=O)o1)C(Cc1ccccc1)C(C#N)=C(N)O2 (centres undefined) — what was its z-score?
[A] 0.225

[Q] Sample O=C(NC1(C(F)(F)F)C(=O)Nc2c1c(=O)[nH]c(=O)n2Cc1ccco1)C1CCCCC1 (centres undefined) — what was its z-score?
[A] 1.09

[Q] Sample Cc1ccc(/C(O)=C2/C(=O)C(=O)N(Cc3ccco3)C2c2cccs2)cc1 (centres undefined) — what was its z-score?
[A] 0.546
